Test system: Escherichia coli (including ESBLs, non-ESBLs)
assay protocol: MIC, two-fold agar dilution (CLSI), clinical isolates
Format: cell-based
protocol conditions: clinical isolate ECO+ 15-4
Excerpt: 1. The invention adopts the two-fold agar dilution method recommended by the operating procedure of antimicrobial susceptibility testing set by American Clinical and Laboratory Standards Institute (CLSI) to determine the Minimum Inhibitory Concentration (MIC) of the test samples against the tested strains.
experimental readout: Anti-bacterial activity (MIC), strain ECO+ 15-4

smiles_structure=CCCC[C@H](CC(=O)NO)C(=O)N1CC2(CCCC2)C[C@H]1C(=O)Nc1ccc(F)cn1 experimental_target="Escherichia coli (including ESBLs, non-ESBLs)" result="> 32 µg/mL"
smiles_structure=O=C(C[C@@H](CC1CCCC1)C(=O)N1CC2(CC2)C[C@H]1C(=O)NC1CC1)NO experimental_target="Escherichia coli (including ESBLs, non-ESBLs)" result="> 32 µg/mL"
smiles_structure=CCCC[C@H](CC(=O)NO)C(=O)N1CC2(CC2)C[C@H]1c1nc2ccccc2[nH]1 experimental_target="Escherichia coli (including ESBLs, non-ESBLs)" result="> 32 µg/mL"

Let's switch to this molecule now.
[ask] Endpoint output: Anti-bacterial activity (MIC), strain ECO+ 15-4 of CCCC[C@H](CC(=O)NO)C(=O)N1CC2(CC2)C[C@H]1C(=O)Nc1cc(C)on1 . Value?
[reply] > 16 µg/mL

====

Here the recorded MIC (anti-bacterial activity) is given for each entry.
Test system: methicillin-sensitive Staphylococcus aureus (MSSA)
assay protocol: MIC, two-fold agar dilution (CLSI), clinical isolates
Type: cell-based
protocol conditions: strain MSSA 14-2
Give the value, in units of µg/mL, as a plain number.

Reference set (2 entries):
compound="CCCC[C@H](CN(O)C=O)C(=O)N1CC2(CC2)C[C@H]1C(=O)Nc1ncccc1F [Example 5]" quantity_unit=µg/mL numeric_result=0.5
compound="CCCC[C@H](CN(O)C=O)C(=O)N1CC2(CC2)C[C@H]1C(=O)Nc1nccc(-c2cccnc2)n1 [Example 9]" quantity_unit=µg/mL numeric_result=0.5

Let's switch to this compound now.
[ask] Endpoint output: MIC (anti-bacterial activity) of CCCC[C@H](CN(O)C=O)C(=O)N1CC2(CC2)C[C@H]1c1nc(-c2cccnc2)no1 [Example 11] . Value?
[reply] 0.5

====

Tested on: MGC-803 gastric cancer cell line
assay protocol: CCK-8 proliferation inhibition
Assay type: cell-based
protocol conditions: Homo sapiens, MGC-803, 72 h, concentration of 30 μM
Text: 2. The present invention adopts the CCK-8 method to determine the proliferation inhibition effect of the spiro three-membered ring, spiro five-membered ring peptide deformylase inhibitor as described in Examples 1-80 against colorectal cancer cells, lung cancer cells, gastric cancer cells, liver cancer cells, and the like. […]
experimental readout: inhibition at 30 µM (%)
Give the value, in units of %, as a plain number.

Reference set (2 entries):
smiles_structure=O=C(C[C@@H](CC1CCCC1)C(=O)N1CC2(CC2)C[C@H]1C(=O)Nc1ccno1)NO experimental_readout="inhibition at 30 µM" numeric_result=50
smiles_structure=Cc1csc(NC(=O)[C@@H]2CC3(CC3)CN2C(=O)[C@H](CC2CCCC2)CN(O)C=O)n1 experimental_readout="inhibition at 30 µM" numeric_result=27

Let's switch to this compound now.
[ask] Endpoint output: inhibition at 30 µM of COC(=O)c1sccc1NC(=O)[C@@H]1CC2(CC2)CN1C(=O)[C@H](CC1CCCC1)CN(O)C=O . Value?
[reply] 26
